- assay_text: folding enthalpy; higher = less favourable; fluorescence melt of hairpins on a sequencing array, two-state fit
- setup_conditions: sodium 0.088 M
Classify as follows. Reported folding enthalpy greater than or equal to -20 kcal/mol: rule met. Reported folding enthalpy below: rule not met.

Record excerpt, results attached:
sequence_data	assigned_category
GGCAACGAAAGTTGTGCC ((((((....)))..)))	rule met
GAAACCGGAAACGGTTTC (((((((....)))))))	rule not met
GATACCACGAAAGTGATC (((..(((....))))))	rule met

**Q:** Is reported folding enthalpy greater than or equal to -20 kcal/mol here: GTGGGGGGAAACCCCTGC (..((((....))))..)
**A:** rule met

**Q:** Try this sequence too: GCGGGGGGAAACCCCCAC (.(((((....))))).)
**A:** rule met

**Q:** Try this sequence too: GAGGCACCGAAAGGTCTC (((..(((....))))))
**A:** rule met

**Q:** Try this sequence too: GTGTGTGGAAACGCACAC (((((.(....).)))))
**A:** rule not met

**Q:** Try this sequence too: GTTCTAGAAATAGAAC ((((((....))))))
**A:** rule not met

**Q:** Try this sequence too: GGTACTGGAAACGGTATC (.(((.(....).))).)
**A:** rule met

**Q:** Try this sequence too: GCACGTCGAAAGACCTGC (((.(((....))).)))
**A:** rule not met

---

- assay_text: melting temperature; fluorescence melt of hairpins on a sequencing array, two-state fit, raised by 9.35 °C to match UV melts
- setup_conditions: sodium 0.088 M
endpoint_name: Tm
// unit must come after the numeric part

sequence_data	Tm
GCTCAGGGAAACCTAAGC (((.(((....))).)))	34.1 °C
GCGCCTGGAAACAAGCGC ((((.((....)).))))	52.8 °C
GATCGCACTTGCGATC ((((((....))))))	69.1 °C
GCACCACGAAAGTGCTGC (((.(((....))).)))	50.5 °C
GCTATGCGAAAGCACTGC ((..(((....)))..))	36.3 °C

**Q:** Query (sequence): GAATAGGCGAAAGCCTTC (((..(((....)))))) ; field requested: Tm
**A:** 29.1 °C

**Q:** Try this sequence too: GCAGCCGAAAGGCAATGC ((((((....)))..)))
**A:** 52.1 °C

**Q:** Try this sequence too: GAGAGAGGAAACTCTCTC (((((((....)))))))
**A:** 57.9 °C

**Q:** Try this sequence too: GAGGGTGGAAACGCCCTC (((((.(....).)))))
**A:** 57.6 °C

**Q:** Try this sequence too: GCCTCGGGAAACCGGGGC (((.(((....))).)))
**A:** 66.3 °C

**Q:** Try this sequence too: GAATGGGGAAACCCATTC (((((((....)))))))
**A:** 57.6 °C

**Q:** Try this sequence too: GGTGGCGGAAACGTCGCC ((.(.((....)).).))
**A:** 54.2 °C

---

- assay_text: melting temperature; fluorescence melt of hairpins on a sequencing array, two-state fit, raised by 9.35 °C to match UV melts
- setup_conditions: sodium 0.088 M
endpoint_name: Tm (°C)
Express your answer in °C, writing the number without its unit.

sequence_data	unit_tag	Tm
GCTCGCTCGAAAGAGAGC (((..(((....))))))	°C	48.6
GACCGGCGAAAGCCCGTC (((.(((....))).)))	°C	50.8
GGTGGCGAAAGCCTGACC ((((((....)))..)))	°C	41.9
GAAGATGGAAACATCTTC (((((((....)))))))	°C	53.5
GCATGCGAAAGCACATGC ((((((....)))..)))	°C	51
GATCCCAAAGGGATC ((((((...))))))	°C	65.5

**Q:** Query (sequence): GGATTCGAAAGAAGCTCC ((((((....)))..))) ; field requested: Tm
**A:** 32.8

**Q:** Try this sequence too: GATCACCACCGTGATC ((((((....))))))
**A:** 55.5
